Just for reference, patent US11752155B2 is where these values come from.

For each entry below, report its pIC50 value.
target: human NR1/NR2B (Homo sapiens (Human), UniProt Q05586+Q13224); assay: NR2B antagonist activity: calcium influx (Fluo-4) assay in HEK293 cells; format: cell-based
Sequence (Q13224 27-1484, other chains not shown): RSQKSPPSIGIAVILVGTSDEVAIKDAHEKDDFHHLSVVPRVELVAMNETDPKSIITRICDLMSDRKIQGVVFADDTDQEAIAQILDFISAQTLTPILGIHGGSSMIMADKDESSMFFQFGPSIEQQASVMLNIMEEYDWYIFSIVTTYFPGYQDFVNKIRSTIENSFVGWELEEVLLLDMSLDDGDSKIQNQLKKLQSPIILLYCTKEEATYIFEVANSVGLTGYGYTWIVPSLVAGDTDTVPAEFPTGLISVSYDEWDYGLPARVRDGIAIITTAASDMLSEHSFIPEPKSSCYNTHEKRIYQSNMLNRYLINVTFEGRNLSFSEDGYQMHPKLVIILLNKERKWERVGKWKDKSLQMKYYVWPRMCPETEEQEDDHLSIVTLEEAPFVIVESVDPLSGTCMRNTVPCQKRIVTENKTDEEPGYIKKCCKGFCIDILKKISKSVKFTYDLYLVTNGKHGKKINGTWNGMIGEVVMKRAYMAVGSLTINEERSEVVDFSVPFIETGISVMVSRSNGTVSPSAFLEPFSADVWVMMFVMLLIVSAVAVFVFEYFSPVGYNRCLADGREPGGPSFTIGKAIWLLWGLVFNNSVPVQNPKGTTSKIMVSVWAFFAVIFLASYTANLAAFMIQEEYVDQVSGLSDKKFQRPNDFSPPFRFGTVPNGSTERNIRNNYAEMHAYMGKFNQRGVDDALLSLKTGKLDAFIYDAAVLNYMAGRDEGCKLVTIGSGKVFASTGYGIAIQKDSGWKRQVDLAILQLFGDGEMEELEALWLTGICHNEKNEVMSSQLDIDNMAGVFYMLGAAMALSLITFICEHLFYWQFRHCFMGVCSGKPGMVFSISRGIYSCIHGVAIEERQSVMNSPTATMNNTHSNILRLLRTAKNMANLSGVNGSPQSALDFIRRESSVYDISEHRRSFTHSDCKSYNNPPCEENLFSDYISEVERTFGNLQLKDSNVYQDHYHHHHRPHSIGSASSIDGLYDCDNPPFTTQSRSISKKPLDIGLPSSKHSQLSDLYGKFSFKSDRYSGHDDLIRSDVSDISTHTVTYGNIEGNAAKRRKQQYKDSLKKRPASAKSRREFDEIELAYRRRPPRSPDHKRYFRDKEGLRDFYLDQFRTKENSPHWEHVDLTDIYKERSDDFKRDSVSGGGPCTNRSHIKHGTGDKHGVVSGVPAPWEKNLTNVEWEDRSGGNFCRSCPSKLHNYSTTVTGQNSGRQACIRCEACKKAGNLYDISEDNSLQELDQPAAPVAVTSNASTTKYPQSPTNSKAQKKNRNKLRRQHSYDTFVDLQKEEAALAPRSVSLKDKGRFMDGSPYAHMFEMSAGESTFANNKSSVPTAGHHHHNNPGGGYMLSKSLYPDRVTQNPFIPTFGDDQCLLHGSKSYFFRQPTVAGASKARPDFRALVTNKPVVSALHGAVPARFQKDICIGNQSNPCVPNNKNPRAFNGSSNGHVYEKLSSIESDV
Lab note: report pIC50 as minus log10 of the concentration in molar units, number only.

query: Sample Cc1ccc(C(F)(F)CN2CCC(Nc3ncnc4[nH]ccc34)CC2)cc1 [C-177^A′] — what was its pIC50?
result: 7.57

query: I'd like to know its pIC50. The molecule in question is FC(F)(CN1CCC(Nc2ncnc3[nH]ccc23)CC1)c1ccc(Cl)cc1 [C-176^A′]
result: 7.59

query: Bench note: what pIC50 did Fc1ccc(C(F)(F)CN2CCC(Nc3ncnc4[nH]ccc34)CC2)nc1 [C-2^A′] show?
result: 6.91

query: Recorded pIC50 for Cc1ccc(C(F)(F)CN2CCC(Nc3ncnc4[nH]ccc34)CC2)nc1 [C-4^A′] , please?
result: 7.46
